Where do the numbers come from? From PubChem BioAssay (NCI).

// reported log10(TGI) per item
- System: OVCAR-8 ovarian
- protocolNotes: NCI tumour cell line growth inhibition, 48 h
measuredQuantity: log10(TGI) (log10 of the value in µM)

> print(dat)
                          structureassmiles      studysystem   val
1  COc1cccc(NC(=O)CSc2nnc(-c3ccc(N=Cc4ccc(Cl)cc4)cc3)o2)c1  OVCAR-8 ovarian  1.77
2  CCN(CC)CCO/N=C1\CC[C@H]2[C@@H]3CC=C4C[C@@H](O)CC[C@]4(C)[C@H]3CC[C@]12C  OVCAR-8 ovarian  1.81
3  S=c1nc(-c2ccccc2)oc(=NC2CCCCC2)n1C1CCCCC1  OVCAR-8 ovarian  1.27
4  COc1ccc(-c2nn(-c3cccc(Cl)c3)cc2C=C(C#N)C#N)cc1  OVCAR-8 ovarian  0.76
5  Nc1ccc(-c2nc3ccc4[nH]ncc4c3c3c2CCCC3)cc1F  OVCAR-8 ovarian  1.33
